experimental conditions: in isopropanol, 298.15 K
measurement kind: solubility (mole fraction)
// no unit string in output, number only

Name the recorded solubility (mole fraction) for `COc1ccc(C(=O)O)c(OC)c1OC` . 0.0801

====

experimental conditions: in n-propanol, 288.15 K
measurement kind: solubility (mole fraction)
Form: value (number only, do not type unit).

Request the reported solubility (mole fraction) associated with `COc1ccc(C(=O)O)c(OC)c1OC` 0.0538

====

experimental conditions: in isopropanol, 318.15 K
measurement kind: solubility (mole fraction)
Returns: the value as a bare number; no unit string appended.

// solubility (mole fraction) lookup, key: `COc1ccc(C(=O)O)c(OC)c1OC` 0.186

====

experimental conditions: in 2-methoxyethanol, 313.15 K
measurement kind: solubility (mole fraction)
// return a plain number; no unit text

Could you tell me which solubility (mole fraction) is on file for `COc1ccc(C(=O)O)c(OC)c1OC` ? 0.26

====

experimental conditions: in ethyl acetate, 313.15 K
measurement kind: solubility (mole fraction)
// return a plain number; no unit text

Given `COc1ccc(C(=O)O)c(OC)c1OC` , state its recorded solubility (mole fraction). 0.283

====

experimental conditions: in isopropyl acetate, 318.15 K
measurement kind: solubility (mole fraction)

solubility (mole fraction) lookup needed for `COc1ccc(C(=O)O)c(OC)c1OC` , thanks. 0.137

====

experimental conditions: in isopropyl acetate, 298.15 K
measurement kind: solubility (mole fraction)
Please reply with the value in numeric form only.

// solubility (mole fraction) lookup, key: `COc1ccc(C(=O)O)c(OC)c1OC` 0.0778

====

experimental conditions: in isopropanol, 278.15 K
measurement kind: solubility (mole fraction)
Reply with just the number.

Sample `COc1ccc(C(=O)O)c(OC)c1OC` — what was its solubility (mole fraction)? 0.0261

====

experimental conditions: in 2-butoxyethanol, 288.15 K
measurement kind: solubility (mole fraction)
Reply with just the number.

Entry `COc1ccc(C(=O)O)c(OC)c1OC` : reported solubility (mole fraction) = ? 0.113

====

experimental conditions: in n-propyl acetate, 303.15 K
measurement kind: solubility (mole fraction)
Keep it simple and answer with nothing but the number.

So what's the measured solubility (mole fraction) for this one? `COc1ccc(C(=O)O)c(OC)c1OC` 0.106

====

experimental conditions: in n-propyl acetate, 278.15 K
measurement kind: solubility (mole fraction)
Write the value as a bare number.

Reported solubility (mole fraction) for `COc1ccc(C(=O)O)c(OC)c1OC` : what is it? 0.0357

====

experimental conditions: in water, 288.15 K
measurement kind: solubility (mole fraction)
# respond with the number and nothing more

Item under review: `COc1ccc(C(=O)O)c(OC)c1OC` . Reported solubility (mole fraction)? 0.000497

====

experimental conditions: in ethylene glycol, 298.15 K
measurement kind: solubility (mole fraction)
Lab note: jot down the number only; don't add units.

Which measured solubility (mole fraction) value corresponds to `COc1ccc(C(=O)O)c(OC)c1OC` ? 0.036

====

experimental conditions: in n-butyl acetate, 303.15 K
measurement kind: solubility (mole fraction)

Consider the compound `COc1ccc(C(=O)O)c(OC)c1OC` and give its measured solubility (mole fraction). 0.0991

====

experimental conditions: in isopropanol, 313.15 K
measurement kind: solubility (mole fraction)
Could you keep your reply to the number by itself?

Reported solubility (mole fraction) for `COc1ccc(C(=O)O)c(OC)c1OC` : what is it? 0.158

====

experimental conditions: in 2-methoxyethanol, 293.15 K
measurement kind: solubility (mole fraction)
Answer with a bare number; do not write a unit.

Name the reported solubility (mole fraction) value associated with the compound `COc1ccc(C(=O)O)c(OC)c1OC` 0.168

The reported numbers originate from BigSolDB 2.1.
